test system: 5-HT2B receptors; test: Function test based on 5-HT2B receptor tissue (pig pulmonary artery, 5-HT-induced relaxation); assay type: cell-based; settings: antagonism of 5-HT-induced relaxation, antagonist conc. (nM)
The entries below come with measured 5-HT2B pA2 value values attached.
parameter-measured: 5-HT2B pA2 value

[[record]]
compound = "C=CCn1cc2c3c(cccc31)C1=C[C@@H](CO)CN(C)[C@@H]1C2"
parameter_measured = "5-HT2B pA2 value"
experimental_value = 7.61

[[record]]
compound = "C=CCn1cc2c3c(cccc31)[C@@H]1C[C@H](NC(=O)N(CC)CC)CN(C)[C@H]1C2 [1-Allyl terguride, 1-allyl-(5R,8S,10R)-terguride]"
parameter_measured = "5-HT2B pA2 value"
experimental_value = 7.67

[[record]]
compound = "C=CCn1cc2c3c(cccc31)[C@H]1C[C@@H](C(=O)N[C@]3(C)O[C@@]4(O)C5CCCN5C(=O)[C@H](Cc5ccccc5)N4C3=O)CN(C)[C@@H]1C2 (stereo partly shown) [1-Allyl dihydroergotamine]"
parameter_measured = "5-HT2B pA2 value"
experimental_value = 9.30

[[record]]
compound = "C=CCn1cc2c3c(cccc31)[C@H]1C[C@@H](C)CN(C)[C@@H]1C2"
parameter_measured = "5-HT2B pA2 value"
experimental_value = 6.74

[[record]]
compound = "CCN(CC)C(=O)N[C@H]1C=C2c3cccc4[nH]cc(c34)C[C@H]2N(C)C1 [Lisuride, reference compound]"
parameter_measured = "5-HT2B pA2 value"
experimental_value = 10.32

[[record]]
compound = "C=CCn1cc2c3c(cccc31)C1=CC(NC(=O)N(CC)CC)CN(C)C1C2 (stereo not shown) [1-Allyl lisuride]"
parameter_measured = "5-HT2B pA2 value"
experimental_value = 8.17

[[record]]
compound = "CCN(CC)C(=O)N[C@H]1C[C@@H]2c3cccc4[nH]cc(c34)C[C@H]2N(C)C1 [Terguride, reference compound]"
parameter_measured = "5-HT2B pA2 value"
experimental_value = 8.49


These entries and their values trace back to patent US7622476B2.
